Origin of values: patent US20190330197A1

test system: Hsp90B sequence from the HSP90 promoter; assay: FRET quadruplex stabilisation assay, Hsp90B; type: binding; conditions: compound at 1 μM, 60 mM potassium cacodylate buffer pH 7.4
measured.endpoint: ΔTm Hsp90B

O=C1c2ccc3c4c(c(NCCN5CCCCC5)cc(c24)C(=O)N1CCCN1CCOCC1)C(=O)N(CCCN1CCOCC1)C3=O	8.7 °C
O=C1c2ccc3c4c(c(NCCN5CCCC5)cc(c24)C(=O)N1CCCN1CCOCC1)C(=O)N(CCCN1CCOCC1)C3=O	12.7 °C
O=C1c2ccc3c4c(c(NCCc5ccccn5)cc(c24)C(=O)N1CCCN1CCOCC1)C(=O)N(CCCN1CCOCC1)C3=O	<2 °C
O=C1c2ccc3c4c(c(NCCN5CCOCC5)cc(c24)C(=O)N1CCCN1CCOCC1)C(=O)N(CCCN1CCOCC1)C3=O	9.4 °C

From here, focus on the item given below.
Which ΔTm Hsp90B value belongs to `O=C1c2ccc3c4c(c(NCCCCN5CCCC5)cc(c24)C(=O)N1CCCN1CCOCC1)C(=O)N(CCCN1CCOCC1)C3=O` ?
16.9 °C

---

Measured ΔTm Kras32 values are reported for all entries that follow.
system: Kras32 sequence from the promoter region of the kras gene; assay: FRET quadruplex stabilisation assay, Kras32; format: binding; conditions: compound at 1 μM, 60 mM potassium cacodylate buffer pH 7.4
Write down the numeric answer in °C and omit the unit.

Which ΔTm Kras32 value belongs to `O=C1c2ccc3c4c(c(NCCN5CCOCC5)cc(c24)C(=O)N1CCCN1CCOCC1)C(=O)N(CCCN1CCOCC1)C3=O` ?
1.5

---

Measured IC50 values are reported for all entries that follow.
System: WI38 (lung fibroblast) cells
Experiment: SRB growth inhibition, WI38
Format: cell-based, human
Conditions: 96 hr, SRB assay; read-out: short-term 96 hr IC50 WI38
Experimental: Human cancer cell lines and the somatic human cell line WI-38 (lung fibroblast) were purchased from the American Type Culture Collection. […] Cellular growth inhibition was measured using the sulforhodamine B (SRB) assay in 96 well plates. Fifty percent inhibitory concentrations (IC50) were determined by taking the mean absorbance at 540 nm for each drug concentration expressed as a percentage of the absorbance of untreated control wells.
Write down the numeric answer in nM and omit the unit.

Below, each entry is followed by its recorded IC50 result.
CN1CCN(CCCNc2cc3c4c(c(NCCCN5CCN(C)CC5)cc5c4c2C(=O)N(CCCN2CCOCC2)C5=O)C(=O)N(CCCN2CCOCC2)C3=O)CC1 [MM41, reference compound]	230
CN1CCN(CCCNc2cc3c4c(ccc5c4c2C(=O)N(CCCN2CCOCC2)C5=O)C(=O)N(CCCN2CCOCC2)C3=O)CC1 [Compound 4a]	1830
CN1CCN(CCNc2cc3c4c(ccc5c4c2C(=O)N(CCCN2CCOCC2)C5=O)C(=O)N(CCCN2CCOCC2)C3=O)CC1 [Compound 4b]	1490

Which IC50 value belongs to O=C1c2ccc3c4c(c(NCC5CCCO5)cc(c24)C(=O)N1CCCN1CCOCC1)C(=O)N(CCCN1CCOCC1)C3=O (centres unmarked) [Compound 4h] ?
1880

Which IC50 value belongs to O=C1c2ccc3c4c(c(NCCN5CCCC5)cc(c24)C(=O)N1CCCN1CCOCC1)C(=O)N(CCCN1CCOCC1)C3=O [Compound 4c] ?
1190

Which IC50 value belongs to O=C1c2ccc3c4c(c(NCCN5CCCCC5)cc(c24)C(=O)N1CCCN1CCOCC1)C(=O)N(CCCN1CCOCC1)C3=O [Compound 4f] ?
5330

Which IC50 value belongs to CCN(CC)CCNc1cc2c3c(ccc4c3c1C(=O)N(CCCN1CCOCC1)C4=O)C(=O)N(CCCN1CCOCC1)C2=O [Compound 4i] ?
5530

Which IC50 value belongs to O=C1c2ccc3c4c(c(NCCN5CCOCC5)cc(c24)C(=O)N1CCCN1CCOCC1)C(=O)N(CCCN1CCOCC1)C3=O [Compound 4g] ?
17600

Which IC50 value belongs to O=C1c2ccc3c4c(c(NCCc5ccc(O)cc5)cc(c24)C(=O)N1CCCN1CCOCC1)C(=O)N(CCCN1CCOCC1)C3=O [Compound 4j] ?
1650

Which IC50 value belongs to O=C1c2ccc3c4c(c(NCCCCN5CCCC5)cc(c24)C(=O)N1CCCN1CCOCC1)C(=O)N(CCCN1CCOCC1)C3=O [Compound 4e] ?
1220

Which IC50 value belongs to O=C1c2ccc3c4c(c(NCCc5ccccn5)cc(c24)C(=O)N1CCCN1CCOCC1)C(=O)N(CCCN1CCOCC1)C3=O [Compound 4d] ?
2240
